# Tested on: RXF 393
# assayProtocol: NCI tumour cell line growth inhibition, 48 h
Calls of active or inactive are those of the source. Cut-off read from the data, not from the text of the source: active = GI50 up to about 1.1 µM and inactive = higher.
Please answer using one outcome listed in active, inactive

Consider the worked cases shown below.
Q) Outcome? O=C(NNC(=S)Nc1ccc(Cl)cc1)c1cc(-c2ccccc2)nc2ccccc12
A) inactive

Q) Could you please tell me the result logged for NC1=NC(c2ccccc2)CC(c2cc(Cl)cc(Br)c2O)=N1 (configuration not stated) in this assay?
A) inactive

Q) How did this test come out for COc1ccc2c(C)cc(N/N=C/c3ccc(OC)c4ccccc34)nc2c1 ?
A) inactive

Others:
Q) Name the outcome recorded for COc1cc(/C=C/C(=O)OCC23CC[C@@]4(C(=O)O)CCC(C)[C@H](C)C4C2=CCC2[C@@]4(C)CC[C@H](O)C(C)(C)C4CC[C@]23C)ccc1O (some centres not stated) in the assay.
A) inactive

Q) Could you check what this test reported for CN1c2ccccc2S(=O)(=O)n2c(COc3ccccc3)nnc21 ?
A) inactive

Q) Assay result, entry CCCCCCCCCc1cc(O)c(O)cc1CCCCCCCCC — outcome?
A) inactive

Q) Test call, this compound: C(=N/NC1=NCCN1)/c1c2ccccc2c(/C=N\NC2=NCCN2)c2ccccc12
A) active
